growth by entry:
- Tested on: LOX IMVI melanoma
- experimentalDetails: NCI-60 one-dose screen, 48 h (100 = growth as untreated, 0 = no growth, -100 = all killed)
- conditionSet: 10 µM unless noted
Compounds without any hit were thinned out: in the full panel of roughly 83,000, 20% have a hit.
Write the value in % as a bare number.

Requested read-out: growth. Entry: "C=C(C)[C@@H]1CC[C@]2(C(=O)n3ccnc3)CC[C@]3(C)[C@H](CC[C@@H]4[C@@]5(C)CCCNC(C)(C)[C@@H]5CC[C@]43C)[C@@H]12"
-92

Then O=C1NC(c2ccc(F)cc2)N=C2C(c3ccccc3)=NOC12 (stereo not drawn) ?
108

Then "Cc1ccc(C2=N[C@H]3CCC[C@@H]3N(c3ccccc3)C(C(Cl)Cl)=N2)cc1" ?
87.9

Then "[2H]c1cc2c(c([2H])c1F)/C(=C/c1[nH]c(C)c(C(=O)NCCN(CC)CC)c1C)C(=O)N2" ?
26.5

Then "C=C(C)[C@@H]1CC[C@]2(C(=O)NCCCO)CC[C@]3(C)[C@H](CC[C@@H]4[C@@]5(C)CCCNC(C)(C)[C@@H]5CC[C@]43C)[C@@H]12" ?
78.7

Then "Cc1c(Br)cccc1NC(=O)c1sc2nc3c(cc2c1N)CN(Cc1ccccc1)CC3" ?
30.9

Then "COc1ccc2nc3c(n2c1)C(=O)C(=O)c1ccccc1-3" ?
-68.4

Then "N#Cc1c(-c2ccc(Cl)cc2)cc(-c2cc3ccccc3o2)nc1SCC(=O)c1ccc(Cl)cc1" ?
91
